Species on record: Rattus norvegicus
Experiment: DrugMatrix - Regimen: Daily Repeat
Format: toxicity, organism-based, Sprague-Dawley
Design: regimen Daily Repeat, gender Male, age 6-8 weeks
Details: in vivo, po, 900 mg/kg, […], tissue Blood, route oral GAVAGE, dose level High, time 14 day
assay-metric: ABSOLUTE BASOPHIL (cells/µL)
Record the value in cells/µL, omitting the unit from your answer.

# input molecule: Clc1ccc(Cl)cc1 ; wanted: its ABSOLUTE BASOPHIL
52

====

Species: Rattus norvegicus
Experiment: DrugMatrix - Regimen: Daily Repeat
Format: toxicity, organism-based, Sprague-Dawley
Set-up: regimen Daily Repeat, gender Male, age 6-8 weeks
Conditions: in vivo, po, 0 mg/kg, 72 h, tissue Blood, route oral GAVAGE, dose level Control, time 3 day, vehicle .5 % CMC
assay-metric: ERYTHROCYTE COUNT (x10E6/uL)
Reply numerically in x10E6/uL, unit not repeated.

// known answers, use as guide
Given CC(C)[C@H]1CC[C@H](C(=O)N[C@H](Cc2ccccc2)C(=O)O)CC1 [NATEGLINIDE] , state its recorded ERYTHROCYTE COUNT.
5.35

What value of ERYTHROCYTE COUNT has been reported for the following compound? CC[C@@H](CO)NCCN[C@@H](CC)CO
6.2

For the compound C[C@]1(Cn2ccnn2)[C@H](C(=O)O)N2C(=O)C[C@H]2S1(=O)=O , what ERYTHROCYTE COUNT is on record?
5.76

I'd like to know its ERYTHROCYTE COUNT. The compound in question is O=C1CCC(N2C(=O)c3ccccc3C2=O)C(=O)N1 (stereo not drawn) [THALIDOMIDE]
6.96

Quick one: ERYTHROCYTE COUNT for CN1C(=O)COc2c(C(=O)NC3CN4CCC3CC4)cc(Cl)cc21 (stereo not drawn) ?
5.45

Next:
Quick check: ERYTHROCYTE COUNT of CC(=O)CC(c1ccccc1)c1c(O)c2ccccc2oc1=O (stereo not drawn) ?
5.38

ERYTHROCYTE COUNT for OC(CCN1CCCCC1)(c1ccccc1)C1CCCCC1 (stereo not drawn) ?
5.57

Could you tell me which ERYTHROCYTE COUNT is on file for Cc1onc(-c2ccccc2)c1-c1ccc(S(N)(=O)=O)cc1 ?
7.15
